system: LOX IMVI melanoma; assay: NCI tumour cell line growth inhibition, 48 h
OUTCOME MEASURE: TGI

Batch request: TGI per item, same order as input.
1. COc1ccc(-c2ccc(NNC(=O)c3ccc(F)cc3)nn2)cc1OC
2. O=C(CBr)c1ccc2cc(Br)c3ccccc3c2c1
3. C=CCCC1(C)CCCNC1=S (stereo unspecified)
4. Cc1ccc(C(=O)NCc2ccccc2)cc1N=NN(C)C
5. C=C1C(O)C2C(=C(C)C13CC3)C(=O)C(C)(C)C2OC (stereo unspecified)
6. CC(=O)[CH-]C(=O)c1ccccc1.CC(=O)[CH-]C(=O)c1ccccc1.O=S(=O)([O-])c1cc([O-])c2c([O-])cc(S(=O)(=O)[O-])cc2c1.[Na+].[Ti+4]

OUTPUT:
> 100 µM
> 100 µM
> 100 µM
> 100 µM
> 100 µM
> 100 µM

Batch request: TGI per item, same order as input.
1. N[C@H](Cc1ccc2oc3cc(=O)c4ccccc4c-3nc2c1)C(=O)O
2. NC(=O)c1cn(Cc2ccccc2)c(=O)n1Cc1ccccc1
3. CN(C)CCNC(=O)c1cccc2[nH]c(-c3ccccn3)nc12
4. O=c1[nH]c2nc3ccccc3c(=O)n2/c1=C/c1cccs1
5. O=C1/C(=C/N2N=C(c3ccc4ccccc4c3)CC2c2ccccc2O)SC(=S)N1c1cccnc1 (stereo unspecified)
6. CC1=NC(C)(COC(=O)C2(C)NC(C)(CO)CO2)COC1=O (stereo unspecified)
7. CC(=O)NC1CONC1=O (stereo unspecified)

OUTPUT:
> 100 µM
> 100 µM
> 90.1 µM
> 100 µM
> 100 µM
> 100 µM
> 100 µM

###

tested on: HCT-116 colon; assay: NCI tumour cell line growth inhibition, 48 h; in the data active = GI50 below about 0.43 µM; inactive = the rest
Respond only with the outcome that fits, drawn from yes (1) (active), no (0) (inactive)

INPUT: // return assay outcome for C=C1C(O)C2C(=C(C)C13CC3)C(=O)C(C)(C)C2OC (stereo not drawn)
OUTPUT: no (0)

INPUT: // return assay outcome for O=C(NC1CCCCC1)c1ccc(Nc2ncnc3c2cnn3-c2ccccc2)cc1
OUTPUT: no (0)

INPUT: // return assay outcome for COc1ccc(-c2cc(Nc3ccnc(N4CCOCC4)n3)on2)cc1
OUTPUT: yes (1)

INPUT: // return assay outcome for CN(C)CCNc1nc2ccccc2c2c(=O)c3cc(F)ccc3sc12
OUTPUT: no (0)

INPUT: // return assay outcome for Cc1noc2c1-c1ccccc1C(c1ccc(Cl)cc1)=N[C@H]2CC(N)=O
OUTPUT: no (0)

INPUT: // return assay outcome for Oc1ccc(N=Nc2nccs2)c(O)c1
OUTPUT: no (0)

INPUT: // return assay outcome for COc1cc(C(=O)O[C@H](C(N)=O)[C@]2(C)CO2)c2cccc(C)c2c1
OUTPUT: no (0)

INPUT: // return assay outcome for COc1ccc(-c2nn(-c3cccc(Cl)c3)cc2-c2nc(N)[nH]c(=O)c2C#N)cc1
OUTPUT: no (0)

###

Could you please report measured TGI for the items listed next?
tested on: KM12 colon; test: NCI tumour cell line growth inhibition, 48 h

Solved cases below.
| COMPOUND | TGI |
| --- | --- |
| COc1cccc(-c2nc(-c3cnccn3)n(C/C=C/c3ccccc3)n2)c1 | > 10 µM |
| C=C1C(O)C2C(=C(C)C13CC3)C(=O)C(C)(C)C2OC (stereo not drawn) | > 100 µM |

Then this compound:
INPUT: # return recorded TGI for input COc1ccc(/C=N/n2cnc3c(c2=O)SC(=C(C#N)C#N)N3c2ccccc2)cc1
OUTPUT: > 100 µM

###

system: NCI-H460 lung; experiment: NCI tumour cell line growth inhibition, 48 h
Could you please report measured TGI for the items listed next?
Answers are plain numbers, in µM.

Solved cases below.
| COMPOUND | TGI [µM] |
| --- | --- |
| O=[N+]([O-])c1c(F)c(F)c2c(c1F)N(CCCCCl)c1ccccc1S2 | 9.91 |
| CNC(C)C(O)c1ccc2oc3cc(=O)c4ccccc4c-3nc2c1 (configuration not stated) | 61.4 |
| O=C(CBr)c1ccc2cc(Br)c3ccccc3c2c1 | 54.4 |
| CCOC(=O)c1sc(NC(=O)COc2cccc(/C=C3\CCc4cc(OC)ccc4C3=O)c2)nc1C | 13.8 |
| NC(=O)CNc1ccc([As]=[As]c2ccc(NCC(N)=O)cc2)cc1 (configuration not stated) | 35.4 |
| CN(C)CCCNc1ccc2ncn3c4ccc(O)cc4c(=O)c1c23 | 4.56 |

Then this compound:
INPUT: # return recorded TGI for input CC(C)(C)c1cc(C(=O)/C=C/c2ccc(C(=O)O)cc2)cc(C(C)(C)C)c1
OUTPUT: 7.36

###

tested on: DMS 273 small cell lung; assay: NCI tumour cell line growth inhibition, 48 h
OUTCOME MEASURE: TGI

Solved cases below.
| MOLECULE | OUTCOME MEASURE | RECORDED RESULT |
| --- | --- | --- |
| Cc1ccc2c(c1-c1ccccc1)C(=O)OC2 | TGI | > 100 µM |
| C1=NC(N(Cc2ccccc2)Cc2ccccc2)N(Cc2ccccc2)N1 (stereo not given) | TGI | 29.1 µM |
| N#Cc1c(-c2ccco2)cc(-c2ccc(N)cc2)[nH]c1=O | TGI | > 100 µM |

Batch request: TGI per item, same order as input.
1. CCCCCCCCCCCC(=O)OC[C@@H](C[As](=O)(O)O)OC(=O)CCCCCCCCCCC
2. Nc1nc(SCc2ccccc2Cl)c2[nH]cnc2n1

OUTPUT:
1: 12.3 µM; 2: > 100 µM

###

tested on: UO-31 renal; assay: NCI tumour cell line growth inhibition, 48 h
OUTCOME MEASURE: TGI

Batch request: TGI per item, same order as input.
1. CN(C)CCNC(=O)c1cccc2[nH]c(-c3ccccn3)nc12
2. CC(Cl)CN1c2ccccc2Sc2ccc(Cl)cc21 (centres undefined)

OUTPUT:
1. > 72.4 µM
2. > 10 µM

Batch request: TGI per item, same order as input.
1. Cc1ccc(N2C(=O)N(c3ccc(C)cc3)C3(SC=NN3C)C2=O)cc1 (centres undefined)
2. COc1ccc(C2c3cc4c(cc3OC(N3CCOCC3)C2C)OCO4)cc1 (centres undefined)

OUTPUT:
> 100 µM
> 100 µM

###

tested on: OVCAR-3 ovarian; assay: NCI tumour cell line growth inhibition, 48 h
Could you please report measured TGI for the items listed next?

Solved cases below.
| MOLECULE | TGI |
| --- | --- |
| C[n+]1c2ccccc2c(NC(CCCN=C(N)N)C(=O)O)c2ccccc21 (centres undefined) | > 100 µM |
| COc1cc(/C=C2\CCC/C(=C\c3ccc(OCC4CO4)c(OC)c3)C2=O)ccc1OCC1CO1 (centres undefined) | 6.23 µM |
| N#Cc1cc2c(cc1Cl)Sc1nnc(Nc3ccccc3)n1S2(=O)=O | 3.82 µM |
| Cn1cc(-c2csc(-c3cn(C)c4ccc(F)cc34)n2)c2cnccc21 | 3.48 µM |
| CC1(C)OP(=O)(O)C=C1Sc1ccc([N+](=O)[O-])cc1[N+](=O)[O-] | > 100 µM |
| NC(=O)c1cn(Cc2ccccc2)c(=O)n1Cc1ccccc1 | > 100 µM |
| C=CCCC1(C)CCCNC1=S (centres undefined) | > 100 µM |
| COc1cc(OC)c2sc(-c3ccc(-n4cncc4-c4cc(OC)c(OC)c(OC)c4)cc3)nc2c1 | > 100 µM |

Batch request: TGI per item, same order as input.
1. COc1ccc(C2c3cc4c(cc3OC(N3CCOCC3)C2C)OCO4)cc1 (centres undefined)
2. NC(N)=N/N=C(\N=Nc1ccccc1)c1ccc(Cl)cc1
3. CN1CCN(/C(N)=C(\C#N)C(=O)Nc2ccc(Cl)cc2)CC1
4. Cc1ccc(C)c(N2C(=O)C(=O)C(c3nc4ccccc4o3)/C(=N\NC(=O)c3ccccc3O)C2=O)c1 (centres undefined)
5. CCOc1cc(NC(C)=O)ccc1C(=O)NNS(=O)(=O)c1ccc(NC(C)=O)cc1
6. CCc1nc(Cl)c(Cl)c(Cl)n1
7. O=C1c2ccccc2C(=O)c2c(NCCN=Cc3ccccc3O)cccc21
8. Cc1c2c(C(N)=O)nccc2c(C)c2c1c1ccccc1n2Cc1ccccc1

OUTPUT:
1: > 86.1 µM; 2: 7.24 µM; 3: > 100 µM; 4: 63 µM; 5: > 100 µM; 6: > 100 µM; 7: 7.92 µM; 8: 21.1 µM

Batch request: TGI per item, same order as input.
1. Cc1c(Cl)cccc1NC(=O)c1cccc([N+](=O)[O-])c1O
2. O=C1CC(=O)NC(=NN2C(=O)/C(=C/c3ccc(Cl)c(Cl)c3)N=C2c2ccccc2)N1
3. Cc1ccc2c(c1)CC1(Cc3cccc(C)c3C1=O)C2=O (centres undefined)
4. CCCn1cnc2c(SCc3ccc(Cl)cc3)nc(N)nc21
5. C=CCC1(C)CCCCC1(O)CS(=O)c1ccccc1 (centres undefined)
6. COC(=O)C(=O)CC(=O)c1cccc(OC)c1

OUTPUT:
1: 51.4 µM; 2: 49.4 µM; 3: > 100 µM; 4: 41.3 µM; 5: > 100 µM; 6: > 100 µM
